Experiment: Metabolic stability in human liver microsomes
Type: in vitro ADME
Conditions: human liver microsomes 0.5 mg/mL; read-out: Human liver microsomes Half-life t1/2
Readout name: half-life at 2 µM (h)

In [3]: df
Out[3]:
                                   compound  unit_info  observed_result
0  [2H]C([2H])([2H])NS(=O)(=O)CCCNc1nonc1/C(=N/O)Nc1ccc(F)c(Br)c1 [Example 27]          h             5.72
1  CCNS(=O)(=O)CCCNc1nonc1C(=NO)Nc1ccc(F)c(Br)c1 [Example 12]          h             2.73

(A) NS(=O)(=O)NCCNc1nonc1C(=NO)Nc1ccc(F)c(Br)c1 [INCB024360, reference compound]
(B) NS(=O)(=O)CCNc1nonc1C(=NO)Nc1ccc(F)c(Br)c1 [Example 1]
(C) CNS(=O)(=O)CCCNc1nonc1/C(=N/O)Nc1ccc(F)c(Br)c1 [Example 11]
(D) NS(=O)(=O)CCCCNc1nonc1C(=NO)Nc1ccc(F)c(Br)c1 [Example 22]
*Q* Your job: order these 4 records by half-life at 2 µM, ascending. In plain terms: list the labels in the order you were asked to.
*A* C, A, B, D

Numbers sourced from patent US11591301B2.
